Target: human α2C receptor (Homo sapiens)
Construct: expressed in transfected cells; host or cells: CHO cells, also recombinantly expressing chimeric G protein Gαqi3 and mitochondrial obelin (mtOb)
Sequence (P18825 1-462): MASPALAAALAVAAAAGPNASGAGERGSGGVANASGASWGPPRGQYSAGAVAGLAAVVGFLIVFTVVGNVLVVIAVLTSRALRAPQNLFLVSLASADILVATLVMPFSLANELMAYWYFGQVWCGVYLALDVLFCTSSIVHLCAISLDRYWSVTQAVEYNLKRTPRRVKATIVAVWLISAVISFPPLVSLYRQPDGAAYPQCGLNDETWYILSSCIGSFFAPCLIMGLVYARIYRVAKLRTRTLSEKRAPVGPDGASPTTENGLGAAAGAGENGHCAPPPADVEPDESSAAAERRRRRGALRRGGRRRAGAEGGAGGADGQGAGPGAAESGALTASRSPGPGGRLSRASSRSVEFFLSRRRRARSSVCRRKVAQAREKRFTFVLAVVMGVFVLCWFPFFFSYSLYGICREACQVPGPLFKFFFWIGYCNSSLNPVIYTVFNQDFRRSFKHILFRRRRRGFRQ
Test details: Antagonism against the adrenoreceptor α2C (luminescence, recombinant CHO cell line)
Type: cell-based
Conditions: antagonism against adrenoreceptor α2C; noradrenaline 20 nM; tested up to 10 μM; read-out: IC50
Counter-ions that a name gives are not always drawn.
Give IC50 for every item shown.
Supply the numeric figure in µM, leaving out any unit text.

Problem: Would you kindly share the measured IC50 for COc1cc(C(C)(C)C)ccc1C(=O)N1CCC(N2CCCC(C)C2)CC1 (stereo not shown) ?
Result: 0.098

Problem: Would you kindly share the measured IC50 for CC(C)CN(C)C(=O)c1ccc(C(=O)N2CCC(N3CCCC(C)C3)CC2)cc1 (stereo not shown) ?
Result: 0.199

Problem: Would you kindly share the measured IC50 for COCC(C)NC(=O)c1ccc(C(=O)N2CCC(N3CCCC(C)C3)CC2)cc1 (stereo not shown) ?
Result: 0.33

Problem: Would you kindly share the measured IC50 for CC1CCCN(C2CCN(C(=O)c3ccc(C(C)C)cc3)CC2)C1 (stereo not shown) ?
Result: 0.294

Problem: Would you kindly share the measured IC50 for COCC1CCCN(C2CCN(C(=O)c3ccc(C(C)(C)O)cc3)CC2)C1 (single isomer, unassigned; enantiomer 2) [Example 123] ?
Result: 0.007

Problem: Would you kindly share the measured IC50 for C[C@@H]1CN(C2CCN(C(=O)c3ccc(C(C)(C)C)cc3)CC2)CC[C@@H]1C (relative stereo) [Example 20, trifluoroacetic acid salt] ?
Result: 0.117

Problem: Would you kindly share the measured IC50 for C[C@@H]1CCCN(C2CCN(C(=O)c3ccc(C(=O)NCc4ncc(F)cc4F)cc3)CC2)C1 [Example 82, trifluoroacetic acid salt] ?
Result: 0.015

====

Give log10 IC50 for every item shown.
Target: human α2C receptor (Homo sapiens, UniProt P18825)
Construct: expressed in transfected cells; host or cells: CHO cells, also recombinantly expressing chimeric G protein Gαqi3 and mitochondrial obelin (mtOb)
Sequence (P18825 1-462): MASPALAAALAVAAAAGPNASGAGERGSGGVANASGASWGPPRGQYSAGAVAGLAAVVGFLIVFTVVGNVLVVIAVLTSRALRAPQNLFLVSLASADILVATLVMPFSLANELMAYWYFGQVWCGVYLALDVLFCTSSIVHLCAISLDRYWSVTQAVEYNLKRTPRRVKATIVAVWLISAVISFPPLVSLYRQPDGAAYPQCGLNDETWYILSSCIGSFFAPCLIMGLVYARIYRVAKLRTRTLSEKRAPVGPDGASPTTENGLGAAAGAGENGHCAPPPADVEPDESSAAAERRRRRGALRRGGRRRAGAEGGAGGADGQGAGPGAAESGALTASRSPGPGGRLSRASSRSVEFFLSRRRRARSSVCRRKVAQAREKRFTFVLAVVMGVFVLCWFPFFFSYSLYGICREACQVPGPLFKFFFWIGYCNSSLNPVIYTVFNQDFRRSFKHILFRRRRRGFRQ
Test details: Antagonism against the adrenoreceptor α2C (luminescence, recombinant CHO cell line)
Assay type: cell-based
Conditions: antagonism against adrenoreceptor α2C; noradrenaline 20 nM; tested up to 10 μM; read-out: IC50
Counter-ions that a name gives are not always drawn.
Each number you see is log10 of IC50, and the unit inside the log is nM.

Problem: Request: log10 IC50, test system human α2C receptor (Homo sapiens, UniProt P18825), entry CCOC(=O)c1ccc(C(=O)N2CCC(N3CCCC(C(=O)OCC)C3)CC2)cc1 (centres unmarked) [Example 2, trifluoroacetic acid salt]
Result: 2.08

Problem: Request: log10 IC50, test system human α2C receptor (Homo sapiens, UniProt P18825), entry CC(C)(O)c1ccc(C(=O)N2CCC(N3CCCC(COc4cccc(F)c4)C3)CC2)cc1 (centres unmarked) [Example 108]
Result: 2.05

Problem: Request: log10 IC50, test system human α2C receptor (Homo sapiens, UniProt P18825), entry CC(NC(=O)c1ccc(C(=O)N2CCC(N3CCC[C@@H](C)C3)CC2)cc1)c1ccncc1 (some centres unmarked) [Example 93]
Result: 2.13

Problem: Request: log10 IC50, test system human α2C receptor (Homo sapiens, UniProt P18825), entry CC1CCCN(C2CCN(C(=O)c3ccc(C(=O)NC(C)Cn4cccn4)cc3)CC2)C1 (centres unmarked) [Example 54]
Result: 2.30

Problem: Request: log10 IC50, test system human α2C receptor (Homo sapiens, UniProt P18825), entry CC(C)(O)c1ccc(C(=O)N2CCC(N3CCCC(COC4CCC4)C3)CC2)cc1 (racemic) [Example 116]
Result: 0.85

Problem: Request: log10 IC50, test system human α2C receptor (Homo sapiens, UniProt P18825), entry CC1CCCN(C2CCN(C(=O)c3ccc(C(C)(C)C)cc3)CC2)C1 (centres unmarked) [Example 5]
Result: 2.00

Problem: Request: log10 IC50, test system human α2C receptor (Homo sapiens, UniProt P18825), entry C[C@@H]1CCCN(C2CCN(C(=O)c3ccc(C(=O)NC(C)(C)C)c(Cl)c3)CC2)C1 [Example 100, formic acid salt]
Result: 1.43

Problem: Request: log10 IC50, test system human α2C receptor (Homo sapiens, UniProt P18825), entry COC(=O)C(C)(C)c1ccc(C(=O)N2CCC(N3CCCC(C)C3)CC2)c(F)c1 (centres unmarked) [Example 41, trifluoroacetic acid salt]
Result: 2.30

====

Give log10(IC50) for every item shown.
Target: human α2C receptor (Homo sapiens, UniProt P18825)
Construct: expressed in transfected cells; host or cells: CHO cells, also recombinantly expressing chimeric G protein Gαqi3 and mitochondrial obelin (mtOb)
Sequence (P18825 1-462): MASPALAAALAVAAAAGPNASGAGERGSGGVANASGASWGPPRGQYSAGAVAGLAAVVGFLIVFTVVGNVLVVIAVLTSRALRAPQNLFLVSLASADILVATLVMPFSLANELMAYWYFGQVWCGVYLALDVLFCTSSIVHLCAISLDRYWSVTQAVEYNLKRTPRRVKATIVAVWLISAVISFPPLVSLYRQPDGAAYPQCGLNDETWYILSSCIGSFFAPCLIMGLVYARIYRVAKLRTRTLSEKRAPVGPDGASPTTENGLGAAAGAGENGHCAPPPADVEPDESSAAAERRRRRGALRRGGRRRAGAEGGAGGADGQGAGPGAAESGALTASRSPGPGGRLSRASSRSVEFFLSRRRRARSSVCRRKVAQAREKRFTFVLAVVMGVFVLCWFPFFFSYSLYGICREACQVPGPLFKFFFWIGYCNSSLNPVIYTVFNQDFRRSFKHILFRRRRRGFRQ
Test details: Antagonism against the adrenoreceptor α2C (luminescence, recombinant CHO cell line)
Format: cell-based
Conditions: antagonism against adrenoreceptor α2C; noradrenaline 20 nM; tested up to 10 μM; read-out: IC50
Structures can show the parent of a compound that is named as a salt.
Each number you see is log10 of IC50, and the unit inside the log is nM.

Problem: Would you kindly share the measured log10(IC50) for COc1ccccc1OCc1ccc(C(=O)N2CCC(N3CCCC(C)C3)CC2)cc1 (stereo not shown) [Example 10] ?
Result: 1.98

Problem: Would you kindly share the measured log10(IC50) for C[C@@H]1CCCN(C2CCN(C(=O)c3ccc(C(=O)NCc4cccnc4Cl)cc3)CC2)C1 [Example 83, trifluoroacetic acid salt] ?
Result: 0.85

Problem: Would you kindly share the measured log10(IC50) for CCOC(=O)C1CCCN(C2CCN(C(=O)c3ccc(C(C)(C)C)cc3)CC2)C1 (stereo not shown) [Example 1] ?
Result: 1.58

Problem: Would you kindly share the measured log10(IC50) for CC1CCCN(C2CCN(C(=O)c3ccc(C(C)(C)C)c(Cl)c3)CC2)C1 (stereo not shown) [Example 3, trifluoroacetic acid salt] ?
Result: 2.43

Problem: Would you kindly share the measured log10(IC50) for CCOCC1CCCN(C2CCN(C(=O)c3ccc(C(C)(C)O)cc3)CC2)C1 (stereo not shown) [Example 120] ?
Result: 1.00

Problem: Would you kindly share the measured log10(IC50) for COCC1CCCN(C2CCN(C(=O)c3ccc(C(=O)Nc4c(C)noc4C)cc3)CC2)C1 (stereo not shown) [Example 105] ?
Result: 1.00

Problem: Would you kindly share the measured log10(IC50) for CC(C)(O)c1ccc(C(=O)N2CCC(N3CCCC(COC(F)(F)F)C3)CC2)cc1 (stereo not shown) [Example 110] ?
Result: 0.85

Problem: Would you kindly share the measured log10(IC50) for Cc1ncccc1CNC(=O)c1ccc(C(=O)N2CCC(N3CCC[C@@H](C)C3)CC2)cc1 [Example 95] ?
Result: 1.67

Problem: Would you kindly share the measured log10(IC50) for COCC1CCCN(C2CCN(C(=O)c3ccc(C(C)(C)O)cc3)CC2)C1 (stereo not shown) [Example 58] ?
Result: 1.40

Problem: Would you kindly share the measured log10(IC50) for CCc1nc(C2CCCN(C3CCN(C(=O)c4ccc(C(C)(C)O)cc4)CC3)C2)n[nH]1 (stereo not shown) [Example 62] ?
Result: 2.19

Problem: Would you kindly share the measured log10(IC50) for CC(C)(O)c1ccc(C(=O)N2CCC(N3CCCC(OCC4CC4)C3)CC2)cc1 (stereo not shown) [Example 128] ?
Result: 1.56

Problem: Would you kindly share the measured log10(IC50) for Cc1noc(C)c1NC(=O)c1ccc(C(=O)N2CCC(N3CCCC(C)C3)CC2)cc1 (stereo not shown) [Example 56] ?
Result: 1.54

Problem: Would you kindly share the measured log10(IC50) for COC(C)(C)c1ccc(C(=O)N2CCC(N3CCCC(COC(C)(C)C)C3)CC2)cc1 (stereo not shown) [Example 119] ?
Result: 1.20

Problem: Would you kindly share the measured log10(IC50) for CCCN(CC1CC1)C(=O)c1ccc(C(=O)N2CCC(N3CCCC(C)C3)CC2)cc1 (stereo not shown) [Example 51] ?
Result: 2.26

Problem: Would you kindly share the measured log10(IC50) for C[C@@H]1CCCN(C2CCN(C(=O)c3ccc(C(=O)NCc4cc(Cl)ccn4)cc3)CC2)C1 [Example 90] ?
Result: 1.45

Problem: Would you kindly share the measured log10(IC50) for CCOC(=O)C1CCCN(C2CCN(C(=O)c3ccc(C4(C)COC4)cc3)CC2)C1 (stereo not shown) [Example 26] ?
Result: 1.08
